What follows is a collection of pKi values obtained with Human immunodeficiency virus type 1 protease (Human immunodeficiency virus 1).
Numbers only, as −log10 of the molar value.

CC(C)CN(C[C@@H](O)[C@H](Cc1ccccc1)NC(=O)O[C@H]1CO[C@H]2OCC[C@H]21)S(=O)(=O)c1ccc(C(=O)O)cc1 : 10.89

Ask: // fetch Human immunodeficiency virus type 1 protease (Human immunodeficiency virus 1) pKi for CC(C)CN(C[C@@H](O)[C@H](Cc1ccccc1)NC(=O)OC1C2COC3OCC1C3C2)S(=O)(=O)c1ccc(B(O)O)cc1 (some centres not stated)
Result: 10.81

* * *

# experimental-system: Autotaxin (Homo sapiens, UniProt Q13822)
# protocol: Inhibition of autotaxin (unknown origin)
property-label: pIC50
Numbers only, as −log10 of the molar value.

Ask: Bench note: what pIC50 did "COc1cc(/C=C2\SC(=O)N(Cc3ccc(F)cc3)C2=O)ccc1OCc1ccc(B(O)O)cc1" show?
Result: 7.55

* * *

# protocol: Solubility of compound at pH 2
# Assay type: physicochemical
# condition-description: buffer
Give measured solubility for each item. Keep answers brief.
Give bare numbers, in µg/mL.

Answer for every listed entry: what is its solubility? The entries follow.
1. COc1ccc(/C=C\c2cc(OC)c(OC)c(OC)c2)cc1B(O)O
2. COc1ccc(/C=C\c2cc(OC)c(OC)c(OC)c2)cc1O

Result:
1. 33.8
2. 18.9

* * *

# experimental-system: Neutrophil elastase (Homo sapiens, UniProt P08246)
# Sequence (P08246 whole entry): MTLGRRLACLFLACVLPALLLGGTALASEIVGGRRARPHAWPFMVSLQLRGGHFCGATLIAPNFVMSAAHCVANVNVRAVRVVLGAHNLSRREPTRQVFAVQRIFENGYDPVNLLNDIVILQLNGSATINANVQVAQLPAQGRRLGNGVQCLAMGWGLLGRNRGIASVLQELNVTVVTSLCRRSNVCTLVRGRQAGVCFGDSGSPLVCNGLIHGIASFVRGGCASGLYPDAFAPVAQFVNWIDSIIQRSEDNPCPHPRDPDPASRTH
# protocol: Inhibition of human neutrophil elastase
Residues, ends and D or L forms follow the SMILES beside them. *: point of attachment. CF3 = FC(F)(F)*; Moc = COC(=O)*
property-label: IC50 (nM)
Give bare numbers, in nM.

COC(=O)N[C@H](C(=O)N1CCC[C@H]1C(=O)N[C@H](B(O)O)C(C)C)C(C)C : 0.27

Ask: Bench note: what IC50 did COC(=O)N[C@H](C(=O)N1CCC[C@H]1C(=O)N[C@H](C(=O)C(F)(F)F)C(C)C)C(C)C (Moc-Val-Pro-Val-CF3) show?
Result: 135
